Test system: Plasmodium vivax liver stage (primary human hepatocyte culture)
Settings: P. vivax isolate: Pv914; hepatocyte lot: BGW; assay mode: Prophylactic, 6-day
Structures can show the parent of a compound that is named as a salt.
Measured Property: EC50 hypnozoite quantity

[
  {
    "Compound": "COc1ccc2nc3cc(Cl)ccc3c(Nc3cc(CN4CCCC4)c(O)c(CN4CCCC4)c3)c2n1",
    "Target Or Test System": "Plasmodium vivax liver stage (primary human hepatocyte culture)",
    "Measured Property": "EC50 hypnozoite quantity",
    "Obs Value": "> 3.33 µM"
  },
  {
    "Compound": "CCCCCCC[C@H]1CN[C@H](C(=O)NC(C(C)Cl)C2O[C@H](SC)[C@H](O)[C@@H](O)[C@H]2O)C1 (stereo partly drawn) [Trans-Mirincamycin]",
    "Target Or Test System": "Plasmodium vivax liver stage (primary human hepatocyte culture)",
    "Measured Property": "EC50 hypnozoite quantity",
    "Obs Value": "> 10 µM"
  },
  {
    "Compound": "N=C(N)c1ccc(OCCCCCOc2ccc(C(=N)N)cc2)cc1 [Pentamidine isethionate]",
    "Target Or Test System": "Plasmodium vivax liver stage (primary human hepatocyte culture)",
    "Measured Property": "EC50 hypnozoite quantity",
    "Obs Value": "5.54 µM"
  },
  {
    "Compound": "CCC1OC(=O)C(C)C(OC2CC(C)(OC)C(O)C(C)O2)C(C)C(OC2OC(C)CC(N(C)C)C2O)C(C)(O)CC(C)CN(C)C(C)C(O)C1(C)O (centres undefined)",
    "Target Or Test System": "Plasmodium vivax liver stage (primary human hepatocyte culture)",
    "Measured Property": "EC50 hypnozoite quantity",
    "Obs Value": "> 10 µM"
  },
  {
    "Compound": "CCN(CC)CCCNc1ccnc2cc(Cl)ccc12",
    "Target Or Test System": "Plasmodium vivax liver stage (primary human hepatocyte culture)",
    "Measured Property": "EC50 hypnozoite quantity",
    "Obs Value": "> 10 µM"
  },
  {
    "Compound": "O=C(NCCN1CCCC1)c1cc(-c2ccc(CN3CCOCC3)cc2)nc2ccc(F)cc12",
    "Target Or Test System": "Plasmodium vivax liver stage (primary human hepatocyte culture)",
    "Measured Property": "EC50 hypnozoite quantity",
    "Obs Value": "0.0104 µM"
  },
  {
    "Compound": "CC[C@H]1OC(=O)[C@H](C)C(=O)[C@H](C)[C@@H](O[C@@H]2O[C@H](C)C[C@H](N(C)C)[C@H]2O)[C@](C)(OCC=Cc2cnc3ccccc3c2)C[C@@H](C)C(=O)[C@H](C)[C@H]2N=C(O)O[C@@]21C",
    "Target Or Test System": "Plasmodium vivax liver stage (primary human hepatocyte culture)",
    "Measured Property": "EC50 hypnozoite quantity",
    "Obs Value": "> 10 µM"
  },
  {
    "Compound": "CCc1nc(N)nc(N)c1OCCCOc1ccccc1CCC(=O)O",
    "Target Or Test System": "Plasmodium vivax liver stage (primary human hepatocyte culture)",
    "Measured Property": "EC50 hypnozoite quantity",
    "Obs Value": "> 10 µM"
  },
  {
    "Compound": "C=C(NC(=O)C(=C)NC(=O)c1csc(C2=NC3c4csc(n4)C4NC(=O)c5csc(n5)C(C(C)(O)C(C)O)NC(=O)C5CSC(=N5)C(=CC)NC(=O)C(C(C)O)NC(=O)c5csc(n5)C3(CC2)NC(=O)C(C)NC(=O)C(=C)NC(=O)C(C)NC(=O)C(C(C)CC)NC2C=Cc3c(C(C)O)cc(nc3C2O)C(=O)OC4C)n1)C(N)=O (centres undefined)",
    "Target Or Test System": "Plasmodium vivax liver stage (primary human hepatocyte culture)",
    "Measured Property": "EC50 hypnozoite quantity",
    "Obs Value": "4.04 µM"
  },
  {
    "Compound": "COc1cccc(C=Cc2nc(=O)c3ccccc3o2)c1OC",
    "Target Or Test System": "Plasmodium vivax liver stage (primary human hepatocyte culture)",
    "Measured Property": "EC50 hypnozoite quantity",
    "Obs Value": "> 10 µM"
  },
  {
    "Compound": "O[C@H](c1cc(C(F)(F)F)nc2c(C(F)(F)F)cccc12)[C@@H]1CCCCN1 [(+)-Mefloquine]",
    "Target Or Test System": "Plasmodium vivax liver stage (primary human hepatocyte culture)",
    "Measured Property": "EC50 hypnozoite quantity",
    "Obs Value": "14.8 µM"
  },
  {
    "Compound": "CC1CC(C)C(=O)C(C(O)CC2CC(=O)NC(=O)C2)C1 (centres undefined) [Cycloheximide]",
    "Target Or Test System": "Plasmodium vivax liver stage (primary human hepatocyte culture)",
    "Measured Property": "EC50 hypnozoite quantity",
    "Obs Value": "> 3.33 µM"
  },
  {
    "Compound": "COc1cc2[nH]c(C)c(-c3ccc(Oc4ccc(OC(F)(F)F)cc4)cc3)c(=O)c2cc1Cl",
    "Target Or Test System": "Plasmodium vivax liver stage (primary human hepatocyte culture)",
    "Measured Property": "EC50 hypnozoite quantity",
    "Obs Value": "> 1.11 µM"
  },
  {
    "Compound": "CCNCc1cc(Nc2ccnc3cc(Cl)ccc23)ccc1O",
    "Target Or Test System": "Plasmodium vivax liver stage (primary human hepatocyte culture)",
    "Measured Property": "EC50 hypnozoite quantity",
    "Obs Value": "> 10 µM"
  },
  {
    "Compound": "CN(C)[C@@H]1C(O)=C(C(N)=O)C(=O)[C@@]2(O)C(O)=C3C(=O)c4c(O)cccc4[C@@](C)(O)[C@H]3C[C@@H]12",
    "Target Or Test System": "Plasmodium vivax liver stage (primary human hepatocyte culture)",
    "Measured Property": "EC50 hypnozoite quantity",
    "Obs Value": "> 10 µM"
  },
  {
    "Compound": "CCCCCCC[C@@H]1CN[C@H](C(=O)NC(C(C)Cl)C2O[C@H](SC)[C@H](O)[C@@H](O)[C@H]2O)C1 (stereo partly drawn) [Cis-Mirincamycin]",
    "Target Or Test System": "Plasmodium vivax liver stage (primary human hepatocyte culture)",
    "Measured Property": "EC50 hypnozoite quantity",
    "Obs Value": "> 10 µM"
  },
  {
    "Compound": "CC(C)N=C(N)N=C(N)Nc1ccc(Cl)c(Cl)c1",
    "Target Or Test System": "Plasmodium vivax liver stage (primary human hepatocyte culture)",
    "Measured Property": "EC50 hypnozoite quantity",
    "Obs Value": "> 10 µM"
  },
  {
    "Compound": "Nc1ncc(-c2ccc(C(=O)N3CCNCC3)cc2)nc1-c1ccc(C(F)(F)F)cc1",
    "Target Or Test System": "Plasmodium vivax liver stage (primary human hepatocyte culture)",
    "Measured Property": "EC50 hypnozoite quantity",
    "Obs Value": "0.00427 µM"
  },
  {
    "Compound": "CCN(CC)CCCC(C)Nc1ccnc2cc(Cl)ccc12 (centres undefined) [Chloroquine Diphosphate]",
    "Target Or Test System": "Plasmodium vivax liver stage (primary human hepatocyte culture)",
    "Measured Property": "EC50 hypnozoite quantity",
    "Obs Value": "> 16.7 µM"
  },
  {
    "Compound": "CS(=O)(=O)c1ccc(-c2cnc(N)c(-c3ccc(C(F)(F)F)nc3)n2)cc1",
    "Target Or Test System": "Plasmodium vivax liver stage (primary human hepatocyte culture)",
    "Measured Property": "EC50 hypnozoite quantity",
    "Obs Value": "0.00729 µM"
  },
  {
    "Compound": "Clc1ccc2c(N[C@H]3CCCC[C@@H]3Nc3ccnc4cc(Cl)ccc34)ccnc2c1",
    "Target Or Test System": "Plasmodium vivax liver stage (primary human hepatocyte culture)",
    "Measured Property": "EC50 hypnozoite quantity",
    "Obs Value": "> 3.33 µM"
  },
  {
    "Compound": "COc1cc(NC(C)CCCN)c2nccc(C)c2c1Oc1ccc(Cl)c(Cl)c1 (centres undefined) [NPC-1161B]",
    "Target Or Test System": "Plasmodium vivax liver stage (primary human hepatocyte culture)",
    "Measured Property": "EC50 hypnozoite quantity",
    "Obs Value": "> 10 µM"
  },
  {
    "Compound": "OC(c1cc(C(F)(F)F)nc2c(C(F)(F)F)cccc12)C1CCCCN1 (racemic) [(±)-Mefloquine]",
    "Target Or Test System": "Plasmodium vivax liver stage (primary human hepatocyte culture)",
    "Measured Property": "EC50 hypnozoite quantity",
    "Obs Value": "> 10 µM"
  },
  {
    "Compound": "C[C@H]1c2cccc(O)c2C(=O)C2=C(O)[C@]3(O)C(=O)C(C(N)=O)=C(O)[C@@H](N(C)C)C3[C@@H](O)C21 (some centres undefined) [Doxycycline hydrochloride]",
    "Target Or Test System": "Plasmodium vivax liver stage (primary human hepatocyte culture)",
    "Measured Property": "EC50 hypnozoite quantity",
    "Obs Value": "> 10 µM"
  },
  {
    "Compound": "CCC[C@@H]1C[C@@H](C(=O)N[C@@H]([C@H]2O[C@H](SC)[C@H](O)[C@@H](O)[C@H]2O)[C@H](C)Cl)N(C)C1 [Clindamycin hydrochloride]",
    "Target Or Test System": "Plasmodium vivax liver stage (primary human hepatocyte culture)",
    "Measured Property": "EC50 hypnozoite quantity",
    "Obs Value": "> 50 µM"
  },
  {
    "Compound": "Cc1nc(Nc2ncc(N3CCN(C)C(C)C3)c(Nc3cc(C)n(C)n3)n2)cc(C2CC2)c1F (centres undefined)",
    "Target Or Test System": "Plasmodium vivax liver stage (primary human hepatocyte culture)",
    "Measured Property": "EC50 hypnozoite quantity",
    "Obs Value": "> 3.33 µM"
  },
  {
    "Compound": "Cc1cc(Nc2ccc(C(F)(F)F)nc2)n2nc(C(C)(F)F)nc2n1",
    "Target Or Test System": "Plasmodium vivax liver stage (primary human hepatocyte culture)",
    "Measured Property": "EC50 hypnozoite quantity",
    "Obs Value": "> 10 µM"
  },
  {
    "Compound": "Cc1c(Oc2cnc(C(=O)N3CC(C)(O)C3)cn2)ccc2c1B(O)OC2",
    "Target Or Test System": "Plasmodium vivax liver stage (primary human hepatocyte culture)",
    "Measured Property": "EC50 hypnozoite quantity",
    "Obs Value": "> 1.11 µM"
  },
  {
    "Compound": "CN(Cc1cnc2nc(N)nc(N)c2n1)c1ccc(C(=O)N[C@@H](CCC(=O)O)C(=O)O)cc1 (racemic) [Methotrexate (+/-)]",
    "Target Or Test System": "Plasmodium vivax liver stage (primary human hepatocyte culture)",
    "Measured Property": "EC50 hypnozoite quantity",
    "Obs Value": "> 10 µM"
  }
]
